Target: human P2X3 receptor (Homo sapiens (Human))
Sequence (P56373 whole entry): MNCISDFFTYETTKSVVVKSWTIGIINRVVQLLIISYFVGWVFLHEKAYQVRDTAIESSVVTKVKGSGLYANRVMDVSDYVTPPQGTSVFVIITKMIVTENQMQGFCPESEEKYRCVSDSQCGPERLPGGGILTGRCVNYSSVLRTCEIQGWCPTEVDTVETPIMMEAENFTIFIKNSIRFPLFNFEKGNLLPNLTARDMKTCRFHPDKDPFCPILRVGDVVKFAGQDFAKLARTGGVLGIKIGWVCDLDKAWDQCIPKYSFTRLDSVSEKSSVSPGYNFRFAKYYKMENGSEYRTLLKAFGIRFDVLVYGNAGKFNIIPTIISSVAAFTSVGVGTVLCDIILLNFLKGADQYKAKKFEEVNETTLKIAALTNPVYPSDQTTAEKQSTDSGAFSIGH
Experiment: Evaluation of human P2X3 receptor inhibitory activity (Fluo-3 calcium fluorescence, FDSS 3000, ATP stimulation);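 further: stimulus was 50 nM ATP with fluorescence followed for 3 min, and the response per well was peak post-ATP fluorescence divided by the reading at measurement start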
Assay type: cell-based
Conditions: C6BU-1 cells stably expressing human P2X3 receptor, Fluo-3 fluorescence, FDSS 3000
QUANTITY_MEASURED: IC50 (µM)
API: value field is a number in µM; no unit string.

> print(dat)
                                   molecule  measurement
1  CCOc1ccc(Cc2nc(=O)n(C[C@H](C)C(=O)OC)c(=O)n2Cc2ccc(Cl)cc2)cc1 [Compound I-1864]        0.186
2  CCOc1ccc(/N=c2\[nH]c(=O)n(C[C@H](C)C(=O)O)c(=O)n2Cc2ccc(C)cc2)cc1Br [Compound I-1179]        0.033
3  C=C(C)c1ccc(Cn2c(=O)n(C[C@H](C)C(=O)OC)c(=O)[nH]/c2=N\c2ccc(OC(C)C)c(C)c2)cc1 [Compound I-0995]        0.276

We now examine a further molecule.
Reported IC50 for COC(=O)CCCCn1c(=O)[nH]/c(=N\c2ccc(OC(C)C)c(Cl)c2)n(Cc2ccc(C)cc2)c1=O [Compound I-1873] : what is it? 0.002
